Data origin: PubChem BioAssay (NCI)

Below: a set of entries, each annotated with reported TGI.
# System: SR leukemia
# protocol.notes: NCI tumour cell line growth inhibition, 48 h

S=P(c1ccccc1)(c1ccccc1)C1(C2(P(=S)(c3ccccc3)c3ccccc3)CC2)CC1
> 100 µM
COc1ccc(C2SCC(=O)N2NC(=O)C(C)Oc2ccccc2Cl)cc1 (stereo unspecified)
58.1 µM
COC(=O)c1cc2c3c(cc(O)c2[nH]1)N(C(=O)C1Cc2cc(OC)c(OC)c(OC)c2N1)CC3CCl (stereo unspecified)
> 100 µM
CC(C)Cc1ccc(C(C)/C=C2\CCC(CN3CCCC3)C2=O)cc1 (stereo unspecified)
5.18 µM
CCn1c(-c2ccc(C)cc2)cs/c1=N\C(P(=O)(O)O)P(=O)(O)O
> 100 µM

### Prompt Field request: TGI | item: C[Si](C)(C)/C=C\CCCN1C(=O)CCC1=O
### Response > 100 µM

### Prompt Next: CC1(C)C(=O)C2(OS(=O)(=O)C(F)(F)F)CCC1C2 (stereo unspecified)
### Response > 100 µM

### Prompt Next: CCC1CCCCN1C(=S)N/N=C(\C)c1ccccn1 (stereo unspecified)
### Response > 100 µM

### Prompt Next: CC(C)(C)OC(=O)NC(Cc1ccc(OCc2ccccc2)cn1)C(=O)N1CCSCC1 (stereo unspecified)
### Response 75.3 µM

### Prompt Next: CC(=O)O[C@H]1C(=O)[C@@]2(C)[C@H]([C@H](OC(=O)c3ccccc3)[C@]3(O)C[C@H](OC(=O)[C@H](O)[C@@H](NC(=O)CC(C)C)c4ccccc4)C(C)=C1C3(C)C)[C@]1(OC(C)=O)CO[C@@H]1C[C@@H]2O
### Response 0.138 µM

### Prompt Next: CC12CC3(O)OC(O1)C1(COC(=O)c4ccccc4)C3CC21OC1OC(CO)C(O)C(O)C1O (stereo unspecified)
### Response > 100 µM

* * *

Below: a set of entries, each annotated with reported TGI.
# Tested on: SNB-75 CNS
# protocol.notes: NCI tumour cell line growth inhibition, 48 h

Solved entries (count: 8):
CC1=C(/C=C/C2=CC(=C\C(=O)O)/CC(C3=C(C)CCCC3(C)C)C2)C(C)(C)CCC1 (centres undefined)
28.8 µM
CC1=C(C(=O)Nc2ccccc2)C(c2ccc(C)o2)C(C#N)=C(SCc2ccccc2)N1 (centres undefined)
> 100 µM
COc1cc(/C=C/C(=O)N[C@@H]2C(=O)N3[C@@H]2SC(C)(C)[C@@H]3C(=O)O)cc(OC)c1OC
> 100 µM
CC(Oc1ccc(OCC2CCCCC2)cc1)C(=O)O (centres undefined)
> 100 µM
CN(C1=NS(=O)(=O)N=C(N(C)c2ccccc2)O1)c1ccccc1
34.5 µM
CC(=O)O[C@H]1CC[C@@]2(C)C(=CC[C@@H]3[C@@H]2CC[C@]2(C)c4c(cc(C#N)c(=N)n4C(C)=O)C[C@@H]32)C1
44.9 µM
CC(=O)c1c(-c2ccccc2)c(-c2ccc(OCCN(C)C)cc2)n2ccccc12
27.9 µM
N#CC(C(=O)CCC(=O)Nc1ccc(Cl)cc1)c1ccccc1Cl (centres undefined)
> 100 µM

Moving on to the next molecule.
### Prompt Field request: TGI | item: CCOP(=O)(OCC)/C(C#N)=C/c1cccn1N(C)C
### Response > 100 µM
